Assay: ATG_SREBP_CIS: Attagene CIS-FACTORIAL HepG2 Assay for human Sterol Regulatory Element Binding (SREBP) (AID 2282962)
Settings: HepG2 Attagene cis-factorial SREBP reporter, mRNA; actives raise or lower the signal
The source made the active and inactive calls. The calls were made as follows: active = hit-call score of the fitted dose curve at least 0.9, where 1 is the maximum; inactive = score below 0.9.
Hi! Could you answer with just one of these? True (active), False (inactive)

Before answering, review these 6 worked examples.
>  <compound>
C#CC(C)(O)CC(C)C (configuration not stated)

>  <qualitativeLabel>
False

$$$$
>  <compound>
Cc1cccc(Nc2ccccc2)c1

>  <qualitativeLabel>
True

$$$$
>  <compound>
C=C(C)[C@@H]1CC=C(C)C(=O)C1

>  <qualitativeLabel>
False

$$$$
>  <compound>
CCCN(CCC)S(=O)(=O)c1ccc(C(=O)O)cc1

>  <qualitativeLabel>
False

$$$$
>  <compound>
COC(=O)c1ccc([N+](=O)[O-])cc1

>  <qualitativeLabel>
False

$$$$
>  <compound>
CN1C(=O)c2ccccc2C1=O

>  <qualitativeLabel>
False

$$$$

Now for another entry.
Challenge: Field: outcome | Entry: CCOC(=O)C(C#N)=C(c1ccccc1)c1ccccc1
Response given: True

###

Assay: ATG_ISRE_CIS: Attagene CIS-FACTORIAL HepG2 Assay for human Interferon Regulatory Factor 1 (IRF1) binding to an Interferon-Stimulated Response Element (ISRE) (AID 2282948)
Settings: HepG2 ISRE cis-reporter (Attagene), mRNA transcription readout; actives raise or lower the signal
Activity calls are given as the source filed them. Rule for the calls: active = hit-call score of the fitted dose curve at least 0.9, where 1 is the maximum; inactive = score below 0.9.
Hello, when you answer, please use one of the following outcomes: active, inactive

Please review the entries below; each comes with its answer.
>  <molecule>
C/C=C(\C)C(=O)OCCc1ccccc1

>  <qualitativeLabel>
inactive

$$$$
>  <molecule>
COS(=O)(=O)O

>  <qualitativeLabel>
inactive

$$$$
>  <molecule>
[Cl][Au]([Cl])[Cl]

>  <qualitativeLabel>
inactive

$$$$
>  <molecule>
C=CC(=O)OCCC#N

>  <qualitativeLabel>
active

$$$$
>  <molecule>
C=CC(C)C#N (centres undefined)

>  <qualitativeLabel>
inactive

$$$$
>  <molecule>
CCCCCC(C=O)=Cc1ccccc1

>  <qualitativeLabel>
active

$$$$

Challenge: Recorded test outcome, item CCOC(=O)C1OC1c1ccccc1 (centres undefined)
Response given: active

Challenge: What was the test verdict on O=C(CC(=O)c1ccccc1)c1ccccc1 ?
Response given: active

Challenge: What did the test return for Oc1c(Cl)cc(Cl)c(Cl)c1Cc1c(O)c(Cl)cc(Cl)c1Cl ?
Response given: active

###

Assay: ATG_NRF2_ARE_CIS: Attagene CIS-FACTORIAL HepG2 Assay for human Nuclear Factor Erythroid 2 Related Factor 2 (NFR2) response to Antioxidant Response Elements (ARE) (AID 2282992)
Details: HepG2 Attagene ARE/NRF2 reporter, transcription factor activity; actives raise or lower the signal
Calls of active or inactive are those of the source. Rule for the calls: active = hit-call score of the fitted dose curve at least 0.9, where 1 is the maximum; inactive = score below 0.9.
Classes to choose from: active, inactive

Look over these answered cases.
>  <compound>
CCC(=O)O[C@@H]1C[C@H]2CC[C@]1(C)C2(C)C

>  <qualitativeLabel>
inactive

$$$$
>  <compound>
C1CCOC1

>  <qualitativeLabel>
inactive

$$$$
>  <compound>
C=C(C)CNCC

>  <qualitativeLabel>
inactive

$$$$
>  <compound>
C=CC(C)C#N (stereo unspecified)

>  <qualitativeLabel>
inactive

$$$$
>  <compound>
O=C(Nc1ccc2c(O)c(N=Nc3ccc(N=Nc4ccc(S(=O)(=O)O)cc4)cc3)c(S(=O)(=O)O)cc2c1)c1ccccc1

>  <qualitativeLabel>
inactive

$$$$

Challenge: Per the records of this test, what outcome belongs to CCCCCc1ccco1 ?
Response given: active

Challenge: // outcome(item) with item = CC(C)Nc1nc(N)nc(Cl)n1
Response given: inactive

###

Read-out: E-selectin (Homo sapiens) (UniProt P16581)
Sequence (P16581 whole entry, looked up): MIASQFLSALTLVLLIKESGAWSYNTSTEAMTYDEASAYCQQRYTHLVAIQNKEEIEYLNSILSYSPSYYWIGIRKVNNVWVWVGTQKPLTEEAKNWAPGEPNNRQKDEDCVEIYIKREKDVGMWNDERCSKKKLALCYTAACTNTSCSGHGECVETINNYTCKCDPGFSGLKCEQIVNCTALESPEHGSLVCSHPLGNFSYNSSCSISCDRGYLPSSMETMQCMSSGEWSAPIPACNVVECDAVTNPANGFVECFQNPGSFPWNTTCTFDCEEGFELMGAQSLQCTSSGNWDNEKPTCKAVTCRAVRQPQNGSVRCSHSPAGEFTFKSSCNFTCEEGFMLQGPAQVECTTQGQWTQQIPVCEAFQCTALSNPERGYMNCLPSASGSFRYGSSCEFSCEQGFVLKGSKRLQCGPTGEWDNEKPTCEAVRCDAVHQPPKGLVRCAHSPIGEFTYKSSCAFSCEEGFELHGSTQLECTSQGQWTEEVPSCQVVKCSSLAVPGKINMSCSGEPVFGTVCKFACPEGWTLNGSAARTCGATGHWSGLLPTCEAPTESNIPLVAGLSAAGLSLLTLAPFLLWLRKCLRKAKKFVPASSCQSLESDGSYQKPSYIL
Test: BSK_3C_Eselectin: BioMAP Diversity Plus: 3C Assay for Eselectin Biomarker Activity (AID 2283015);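 as to outcome: cell surface E-selectin protein quantified by ELISA 24 h after dosing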
Settings: primary human endothelial cells (HUVEC); actives raise or lower the signal
Procedure: BSK_3C is a cell-based, multiplexed-readout assay that uses umbilical vein endothelium, a human vascular primary cell, with measurements taken at 24 hours after chemical dosing in a 96-well plate.BSK_3C_Eselectin is an assay component measured in the BSK_3C assay. It measures E-selectin antibody related to regulation of gene expression using ELISA technology.Data from the assay component BSK_3C_Eselectin was analyzed into 1 assay endpoint. […]
Active and inactive are the calls of the source. How the source made its calls: active means hit-call score of the fitted dose curve at least 0.9, where 1 is the maximum; inactive means score below 0.9.
Reply using exactly one outcome from active, inactive

Consider the worked cases shown below.
>  <smilesRepresentation>
CN(C)C(=S)SC(=S)N(C)C

>  <qualitativeLabel>
active

$$$$
>  <smilesRepresentation>
COc1cc(Cl)c(OC)cc1N

>  <qualitativeLabel>
inactive

$$$$
>  <smilesRepresentation>
CS(=O)(=O)OCCCCOS(C)(=O)=O

>  <qualitativeLabel>
inactive

$$$$
>  <smilesRepresentation>
O=C1OC2(c3ccccc31)c1ccc(O)c(Br)c1Oc1c2ccc(O)c1Br

>  <qualitativeLabel>
active

$$$$
>  <smilesRepresentation>
CCCCN(CCCC)C(=O)N(CCCC)CCCC

>  <qualitativeLabel>
active

$$$$
>  <smilesRepresentation>
COc1ccc(OC)c(N=Nc2c(O)ccc3ccccc23)c1

>  <qualitativeLabel>
inactive

$$$$

Then this compound:
Challenge: Fill in: this test's call for CC(=O)c1c(C)c([N+](=O)[O-])c(C(C)(C)C)c([N+](=O)[O-])c1C is ___
Response given: inactive

###

Target: CCAAT/enhancer-binding protein beta (Homo sapiens)
Test: ATG_C_EBP_CIS: Attagene CIS-FACTORIAL HepG2 Assay for human CCAAT/Enhancer Binding Protein (C/EBP) beta (AID 2282927)
Conditions: HepG2 Attagene cis-factorial transcription factor reporter; actives raise or lower the signal
The source made the active and inactive calls. The calls were made as follows: active = hit-call score of the fitted dose curve at least 0.9, where 1 is the maximum; inactive = score below 0.9.
Assign a class; possible classes are yes for active, no for inactive

Solved cases below.
>  <compound>
CCCCC1CCC(O)CC1 (stereo not drawn)

>  <qualitativeLabel>
no

$$$$
>  <compound>
[Cl][Au]([Cl])[Cl]

>  <qualitativeLabel>
no

$$$$
>  <compound>
O=C(CC(=O)c1ccccc1)c1ccccc1

>  <qualitativeLabel>
yes

$$$$
>  <compound>
CC1CC(O)CC(C)(C)C1 (stereo not drawn)

>  <qualitativeLabel>
no

$$$$
>  <compound>
CC(C)CCCCCCCCCCCCCCC(=O)O

>  <qualitativeLabel>
no

$$$$
>  <compound>
Cc1ccc(C)o1

>  <qualitativeLabel>
no

$$$$

Challenge: Entry CCCCCCCCCCCCCCN(CCO)CCO : call = ?
Response given: no

Challenge: Hi, do you know how Nc1ccn([C@H]2CS[C@@H](CO)O2)c(=O)n1 came out in this test?
Response given: no

Challenge: Look up the recorded call for C[Si]1(C)O[Si](C)(C)O[Si](C)(C)O1 in this test.
Response given: no

Challenge: Could you kindly confirm the outcome this assay logged for CCCCCCC(O)CCCCCCCCCCC(=O)O (stereo not drawn) ?
Response given: no

Challenge: How was CCC(C)c1cc([N+](=O)[O-])cc([N+](=O)[O-])c1OC(=O)OC(C)C (stereo not drawn) classified in this test?
Response given: yes

###

Test: ATG_RORE_CIS: Attagene CIS-FACTORIAL HepG2 Assay for human RAR-related Orphan Receptor Element (RORE) (AID 2282959)
Conditions: HepG2 Attagene cis-factorial RORE reporter, mRNA; actives raise or lower the signal
Active and inactive are the calls of the source. How the source made its calls: active means hit-call score of the fitted dose curve at least 0.9, where 1 is the maximum; inactive means score below 0.9.
Valid outcomes are listed here; reply with one: YES (active), NO (inactive)

Here are 8 molecules together with their reported answers.
>  <molecule>
CCCCCCCCCC(C)C=O (configuration not stated)

>  <qualitativeLabel>
NO

$$$$
>  <molecule>
CCCCCCC(=O)c1ccccc1

>  <qualitativeLabel>
NO

$$$$
>  <molecule>
CCc1ccc(O)c(OC)c1

>  <qualitativeLabel>
NO

$$$$
>  <molecule>
NC(=S)NNC(N)=S

>  <qualitativeLabel>
NO

$$$$
>  <molecule>
CC(O)C1CCCCC1 (configuration not stated)

>  <qualitativeLabel>
NO

$$$$
>  <molecule>
CCOC(=O)C(C#N)=C(c1ccccc1)c1ccccc1

>  <qualitativeLabel>
YES

$$$$
>  <molecule>
CS(=O)(=O)OCCCCOS(C)(=O)=O

>  <qualitativeLabel>
NO

$$$$
>  <molecule>
CC1CCC(C(C)C)C(O)C1 (configuration not stated)

>  <qualitativeLabel>
NO

$$$$

Challenge: Could you kindly confirm the outcome this assay logged for Cc1c(Cl)cccc1[N+](=O)[O-] ?
Response given: NO

Challenge: Would you mind telling me which call this test gave [Cl][Au]([Cl])[Cl] ?
Response given: NO

Challenge: Recorded call for O=C(O)c1ccc(O)cc1 ?
Response given: NO

Challenge: So what was the verdict on C=C(C)C(=O)OCCOCCOCCOC(=O)C(=C)C in this test?
Response given: NO

###

Assay: ATG_CMV_CIS: Attagene CIS-FACTORIAL HepG2 Assay for human CMV (Internal Marker) (AID 2282928);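 also: endpoint acts as a background internal control marker rather than a target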
Conditions: HepG2 CMV promoter reporter, transcription factor profiling; actives raise or lower the signal
The source made the active and inactive calls. How the source made its calls: active means hit-call score of the fitted dose curve at least 0.9, where 1 is the maximum; inactive means score below 0.9.
Form entry, call: pick from T for active, F for inactive

>  <compound>
CN(C)CCOC(C)(c1ccccc1)c1ccccn1 (stereo not drawn)

>  <qualitativeLabel>
F

$$$$
>  <compound>
O=[N+]([O-])c1cccc(Cl)c1

>  <qualitativeLabel>
F

$$$$
>  <compound>
C=C(C)[C@@H]1CC=C(C)C(=O)C1

>  <qualitativeLabel>
F

$$$$
>  <compound>
O=C1c2ccccc2C(=O)c2c(O)ccc(O)c21

>  <qualitativeLabel>
T

$$$$
>  <compound>
CC(CN=Cc1ccccc1O)N=Cc1ccccc1O (stereo not drawn)

>  <qualitativeLabel>
T

$$$$

Challenge: Any idea what this test logged for CCCCCCCCCCCCS(=O)(=O)Cl ?
Response given: F

Challenge: For CCOC(=O)C(C#N)=C(c1ccccc1)c1ccccc1 , which call appears in the assay record?
Response given: F

Challenge: Per the records of this test, what outcome belongs to COC(=O)c1ccc([N+](=O)[O-])cc1 ?
Response given: F

Challenge: Which outcome was assigned to CN1CCOCC1 in this test?
Response given: F

Challenge: Query: recorded result category for CC(C)(C)CC(C)(C)c1ccc(OCCOCC[N+](C)(C)Cc2ccccc2)cc1 in this test
Response given: T
